- Assay type: in vivo, human (healthy volunteers)
- particulars: human, whole blood, oral, 2 mg
readout_type: Cmax (ng/mL)
Please respond with the number in ng/mL and leave the unit unwritten.

Request: Form field: reported Cmax of `C=CC[C@@H]1/C=C(\C)C[C@H](C)C[C@H](OC)[C@H]2O[C@@](O)(C(=O)C(=O)N3CCCC[C@H]3C(=O)O[C@H](/C(C)=C/[C@@H]3CC[C@@H](O)[C@H](OC)C3)[C@H](C)[C@@H](O)CC1=O)[C@H](C)C[C@@H]2OC`
Result: 11

====

- Assay type: in vivo, human (healthy volunteers)
- particulars: human, whole blood, oral, 2 mg
readout_type: concentration at 12 h (ng/mL)
Unit ng/mL implied. Number only.

Request: Please look up its concentration at 12 h: `C=CC[C@@H]1/C=C(\C)C[C@H](C)C[C@H](OC)[C@H]2O[C@@](O)(C(=O)C(=O)N3CCCC[C@H]3C(=O)O[C@H](/C(C)=C/[C@@H]3CC[C@@H](O)[C@H](OC)C3)[C@H](C)[C@@H](O)CC1=O)[C@H](C)C[C@@H]2OC`
Result: 1.6

====

- Format: in vivo, human (healthy volunteers)
- particulars: human, whole blood, oral, 2 mg
readout_type: AUC(0-inf) (ng·h/mL)
// return numeric value only (unit: ng·h/mL, not printed)

Request: # query: AUC(0-inf) of entry C=CC[C@@H]1/C=C(\C)C[C@H](C)C[C@H](OC)[C@H]2O[C@@](O)(C(=O)C(=O)N3CCCC[C@H]3C(=O)O[C@H](/C(C)=C/[C@@H]3CC[C@@H](O)[C@H](OC)C3)[C@H](C)[C@@H](O)CC1=O)[C@H](C)C[C@@H]2OC [tacrolimus]
Result: 118
